Biological target: CIB1 and αIIb interaction (CIB1-GST : F-αIIb peptide) (Homo sapiens, UniProt Q99828)
Construct: made in house; host or cells: BL-21 plus RIL cells (E. coli)
Experiment: FP assay, 1536-well qHTS format (primary and confirmatory screen)
Assay type: binding
Conditions: confirmatory screen
READOUT: CONFIRMATORY SCREEN Efficacy (%)
Just the number please, in %, no unit attached.

Consider the reported CONFIRMATORY SCREEN Efficacy (%) for these compounds:
Cl.O=S(=O)(Nc1nccs1)c1ccc(NCc2cc(Cl)cc(Br)c2O)cc1; -19
NC(=O)c1ncn([C@@H]2O[C@H](CO)[C@@H](O)[C@H]2O)c1O; -5.43
O=C(O)C(F)(F)F.O=C1CCCC2=C1C1(CCOCC1)N=C(Nc1nc3ccccc3o1)N2; 0
COC(=O)c1ccc(O)c2ncc(-c3ccc(C(=O)N4CCNCC4)cc3)cc12.O=C(O)C(F)(F)F; -16
CN1CCN(c2ccc(-c3cc(O)c4ncccc4c3)cc2)CC1.O=C(O)C(F)(F)F; -13

Item O=[N+]([O-])c1ccc(O)c2ncccc12 with CIB1 and αIIb interaction (CIB1-GST : F-αIIb peptide) (Homo sapiens, UniProt Q99828) - CONFIRMATORY SCREEN Efficacy (%)?
0

How about CN(C)c1cnc2c(O)cccc2c1.O=C(O)C(F)(F)F ?
-19

How about COc1cc([C@H]2Oc3cc([C@H]4Oc5cc(O)cc(O)c5C(=O)[C@@H]4O)ccc3O[C@@H]2CO)ccc1O ?
-30

====

Biological target: CIB1 and αIIb interaction (CIB1-GST : F-αIIb peptide) (Homo sapiens, UniProt Q99828)
Construct: made in house; host or cells: BL-21 plus RIL cells (E. coli)
Assay: FP assay, 1536-well qHTS format (primary and confirmatory screen)
Type: binding
Details: qHTS FP screen hits, Table S2; one class per curve where COUNT > 1; negative sign = inhibitory curve
READOUT: Curve Class
Lab note: write the figure by itself, no unit.

Consider the reported Curve Class for these molecules:
COc1ccc(CC(NC(C)=O)C(=O)O)cc1 (stereo not drawn); -2.2
CN1CCc2ccc3c4c2[C@]1(C)Cc1cccc(c1-4)OCO3; -2.1

Give the measured Curve Class of O=C(O)c1cc(/N=N/c2ccc(S(=O)(=O)Nc3ccccn3)cc2)ccc1O .
-2.2

How about Cc1cc(/N=N/c2ccc(S(=O)(=O)Nc3ccccn3)cc2)c(N)cc1O ?
-2.2

How about Nc1nc2c(s1)C(c1ccc(F)cc1F)CC(=O)N2 (stereo not drawn) ?
-2.2

How about CCOC(=O)CC(SP(=S)(OC)OC)C(=O)OCC (stereo not drawn) ?
-2.2

====

Listing of recorded Efficacy (%) by entry.
Biological target: CIB1 and αIIb interaction (CIB1-GST : F-αIIb peptide) (Homo sapiens, UniProt Q99828)
Construct: made in house; host or cells: BL-21 plus RIL cells (E. coli)
Sequence (Q99828 1-191): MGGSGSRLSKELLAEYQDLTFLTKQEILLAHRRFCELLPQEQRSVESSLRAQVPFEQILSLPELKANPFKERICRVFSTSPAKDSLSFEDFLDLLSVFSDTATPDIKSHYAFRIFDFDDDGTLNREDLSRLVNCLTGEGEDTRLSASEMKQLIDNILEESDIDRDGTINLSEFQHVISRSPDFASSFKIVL
Assay: FP assay, 1536-well qHTS format (primary and confirmatory screen)
Format: binding
Details: qHTS primary screen hits, Table S2; negative = inhibition
Just the number please, in %, no unit attached.

Consider the reported Efficacy (%) for these compounds:
Cn1ccc(=Nc2ccc(NC(=O)c3ccc(/N=c4\ccn(C)c5ccc([N+](=O)[O-])cc45)cc3[N+](=O)[O-])cc2)cc1.O=C(O)C(F)(F)F; -65
C[C@H](Cc1ccc(O)c(O)c1)[C@@H](C)Cc1ccc(O)c(O)c1; -32
O=C1Nc2cc(Cl)ccc2Nc2cscc21; -66

Then there is this compound:
Give the measured Efficacy (%) of CC(C)COc1ccc(-c2ccc(=O)n(CC(=O)NCCc3ccccc3)n2)cc1.O=C(O)C(F)(F)F .
-38
